Test: NCI Yeast Anticancer Drug Screen. Data for the sgs1 mgt1 strain (AID 161);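 further: 0% = growth of cultures given vehicle only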
Details: S. cerevisiae sgs1 mgt1 strain, at 50.0 µM, active compounds read high
Compounds without any hit were thinned out: in the full panel of roughly 79,000, 15% have a hit. The source made the active and inactive calls. No stated cut-off is given here; in the data, active means growth inhibition above about 70%; inactive means the rest.
Measurement Label: growth inhibition

> print(dat)
                                   compound        test.result
1  CSc1nc(N)c(N=Nc2ccc(S(=O)(=O)Nc3cc(C)nc(C)n3)cc2)c(=O)[nH]1  -10.6% (inactive)
2  CCCC(CO)OC(=O)Nc1ccc(-c2ccccc2)cc1 (configuration not stated)  -2.15% (inactive)
3       COc1ccc(-c2nnc(-c3ccc(OC)cc3)o2)cc1   16.5% (inactive)
4  O=[N+]([O-])c1ccc(N/N=C/CCCCl)c([N+](=O)[O-])c1   13.2% (inactive)
5    CN1CCN(C(=O)Nc2ccc(N=Nc3ccccc3)cc2)CC1    6.1% (inactive)

Please fill in: growth inhibition reported for NC(=O)c1cccc2c1OCO2 = -7.35% (inactive)

Lab note: measured growth inhibition of Cc1cc2nc3c(=O)[nH]c(=O)nc-3n(CCO)c2cc1C was 8.6% (inactive)

# growth inhibition of CC(=O)/C=C1/NC(C(=O)c2ccccc2)=CNC1c1ccccc1 (configuration not stated) = 20.6% (inactive)

Measured growth inhibition of Cc1c(CN(C)C)ccc2ccccc12 : 3.95% (inactive)

###

Experiment: NCI Yeast Anticancer Drug Screen. Data for the mec2-1 strain (AID 157)
Settings: S. cerevisiae mec2-1 strain, at 50.0 µM, active compounds read high
Compounds without any hit were thinned out: in the full panel of roughly 79,000, 15% have a hit.
Listed below: growth inhibition values for each entry.
Unit % implied. Number only.

> print(dat)
                                   compound  measurement.label  test.result
1  O=C(c1ccccc1)N(N=C(c1ccc([N+](=O)[O-])cc1)c1ccc([N+](=O)[O-])cc1)c1ccccc1  growth inhibition         15.1
2  NC(Cc1c[nH]c2ccc(Br)cc12)C(=O)O (configuration not stated)  growth inhibition        -26.7
3                        CSc1ccc(C(N)=O)cn1  growth inhibition        -12.2

Lab book: growth inhibition of CCCCCCC(/C=C/c1ccc(Cl)c(Cl)c1)=N\Nc1ccccc1 noted as -15.9

compound N#CC1(c2ccccc2)OC1(C#N)c1ccccc1 (configuration not stated) , growth inhibition observed: -14.6

Lab note: measured growth inhibition of O=C(NC1CCCCC1Cl)C1CCCCC1 (configuration not stated) was 18.6

So, O=C(NC/C=C/Br)Oc1cccc2ccccc12 ? Its growth inhibition was 18.6

// field: growth inhibition; key: N#Cc1ccccc1CC(O)(c1ccccc1)c1ccccc1 ; value = -5.85

Consider CCOc1c(N=Nc2ccccc2Cl)c(C)nn1C(N)=S . Its measured growth inhibition is 8.7

Notebook: O=C(O)c1ccc(/C=N/NC(=O)C(O)(c2ccccc2)c2ccccc2)cc1 , growth inhibition read as -21.9

Looking up CC(O)C(=O)N(CCO)CCO (configuration not stated) , I found its growth inhibition recorded as -21.9

The compound listed as COc1ccc(-n2cc3c(=O)nccc-3c3ccccc32)cc1OC shows growth inhibition equal to -12.8

###

Overview of recorded growth inhibition for various compounds
Experiment: NCI Yeast Anticancer Drug Screen. Data for the sgs1 mgt1 strain (AID 161);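 further: 0% = growth of cultures given vehicle only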
Details: S. cerevisiae sgs1 mgt1 strain, at 50.0 µM, active compounds read high
This is part of a sample that, as a whole, favours compounds with a hit. Of some 79,000 tested, about 15% had one in any assay. Where a SMILES comes first, the peptide text is derived from it. The star is where a group is joined. Boc = CC(C)(C)OC(=O)*
Record the value in %, omitting the unit from your answer.

Compound	Test Result
O=S(=O)(c1ccccc1)C1CCCC1	-1.85

GET /value?item= Nc1nc(N)c2nc(CNc3ccc(C(=O)NC(CCCNC(=O)c4ccccc4C(=O)O)C(=O)O)cc3)cnc2n1 (centres undefined) &field=growth inhibition returns 7.6

The value of growth inhibition measured for the compound CC12CCC(/C(=N/O)C1=O)C2(C)C (centres undefined) turned out to be 1.1

# growth inhibition of CC1(C(=O)O)CCC2(C)CCC3(C)C(=CC(=O)C4C5(C)CCC(OC6OC(C(=O)O)C(O)C(O)C6OC6OC(C(=O)O)C(O)C(O)C6O)C(C)(C)C5CCC43C)C2C1 (centres undefined) = -2.25

Value of growth inhibition reported for the compound Clc1ccc(C2SC=Cc3ccccc32)cc1 (centres undefined) is 47.6

Memo: CCc1cccc2[nH]c3cc([N+](=O)[O-])ccc3c12 , reported growth inhibition: 2.5

For reference, reported growth inhibition for COc1cc(OC)cc(C(NC(C)=O)NC(C)=O)c1 stands at 7.7

Record COC(=O)C(Cc1c[nH]c2ccccc12)NC(=O)C(Cc1c[nH]c2ccccc12)NC(=O)C(Cc1c[nH]c2ccccc12)NC(=O)C(Cc1c[nH]c2ccccc12)NC(=O)OC(C)(C)C (centres undefined) (Boc-WWWW-OMe; configuration not given here) , field growth inhibition: -2.05

Record C#CCN1CCCC1 , field growth inhibition: -11

###

Experiment: NCI Yeast Anticancer Drug Screen. Data for the cln2 rad14 strain (AID 165);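 further: 0% = growth equal to vehicle treated cultures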
Conditions: S. cerevisiae cln2 rad14 strain, at 50.0 µM
Procedure: Growth inhibition of yeast strains with defined genetic alterations is measured as a screen for potential anti-cancer activity. Selected strains with alterations in DNA damage repair or cell cycle control were exposed to compounds and growth inhibition was measured relative to vehicle treated controls. The strain used in this assay is cln2 rad14
This is part of a sample that, as a whole, favours compounds with a hit. Of some 79,000 tested, about 15% had one in any assay. Active and inactive are the calls of the source. No stated cut-off is given here; in the data, active means growth inhibition above about 70%; inactive means the rest.
Use one of these outcomes when replying: active, inactive

These solved cases illustrate the format of a correct answer.
> print(dat)
                                   compound  discrete.label
1  CCCCC(CC)C(O)CC(C)=O (configuration not stated)        inactive
2  CCCCSCC(NC(=O)/C=C/c1c(C)[nH]c(=O)[nH]c1=O)C(=O)OC (configuration not stated)        inactive
3  CCOC(=O)C(NC(=O)NC(C(=O)OCC)C(=O)OCC)C(=O)OCC        inactive
4             O=C(c1cccc(Cl)c1)c1cccc(Cl)c1        inactive

Task item: What classification did CCCCCNC(=O)c1cccc(C)c1 end up with in this test?
Reply: inactive

Task item: // outcome(item) with item = CCCCCCCCOC(=O)C(C)OC(C)=O (configuration not stated)
Reply: inactive

Task item: How did this test come out for CCC1Cc2ccccc2OC1=O (configuration not stated) ?
Reply: inactive

Task item: # fetch the recorded call for C=C(C)COc1ccc(C)cc1Br here
Reply: inactive

Task item: For COC(=O)CCC(=O)CC(=O)C1=NS(=O)(=O)c2nc(S(N)(=O)=O)c(Cl)cc2N1 , what call appears in the results of this test?
Reply: inactive

###

Assay: NCI Yeast Anticancer Drug Screen. Data for the rad50 strain (AID 155);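 further: 0% = growth of vehicle-only cultures of the same strain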
Details: S. cerevisiae rad50 strain growth inhibition; at 50.0 µM
About 79,000 compounds went through this panel and 15% of them were active in at least one assay; those are over-represented in the sample as a whole. The source made the active and inactive calls. No stated cut-off is given here; in the data, active means growth inhibition above about 70%; inactive means the rest.
Entry note: the call must match one of active, inactive

> print(dat)
                                   compound  discrete.label
1  COC(=O)C(C)c1cccc2ccc3ccccc3c12 (stereo not given)        inactive
2  C[C@]12CC[C@@H]3c4ccc(OS(=O)(=O)O)cc4CC[C@H]3[C@@H]1CCC2=O        inactive
3  CC(=O)Nc1ccc2ccccc2c1SC1CC(=O)N(c2ccccc2)C1=O (stereo not given)        inactive
4              Cc1ccc(/C=C2/NC(=S)SC2=O)cc1        inactive
5  CCOC(=O)OC1CCC2(C)C(=CCC3C2CCC2(C)C(C(C)CCCC(C)C)CCC32)C1 (stereo not given)        inactive

Task item: Kindly provide the recorded test outcome for the following compound: N#CN=C(N(Cc1ccccc1)Cc1ccccc1)N(Cc1ccccc1)Cc1ccccc1
Reply: inactive

Task item: # outcome recorded in this test, key = CCN(CC)CCNc1ncnc2c1cnn2C
Reply: inactive

Task item: Write down the call the test reported for this compound. Item: CC1=C(C(=O)Nc2ccccc2C)C(c2ccc(C3C(C(=O)Nc4ccccc4C)=C(C)NC(C)=C3C(=O)Nc3ccccc3C)cc2)C(C(=O)Nc2ccccc2C)=C(C)N1
Reply: inactive

Task item: What classification did c1ccc2c(c1)CC1C3c4ccccc4C(c4ccccc43)C1C2 (stereo not given) end up with in this test?
Reply: inactive

Task item: Which outcome was entered for the compound O=C1OC2C(O)C(N(O)c3ccccc3)OC2[C@@H]1O (stereo not given in full) in this test?
Reply: inactive

Task item: Could you please tell me the result logged for C(=C\c1csnn1)/c1ccc(/C=C/c2csnn2)cc1 in this assay?
Reply: inactive

Task item: What classification did CC(C)(O)C(F)(F)F end up with in this test?
Reply: inactive
